system: A498 renal; test: NCI tumour cell line growth inhibition, 48 h; in the data active = GI50 below about 0.43 µM; inactive = the rest
Please answer using one outcome listed in active, inactive

In: What did this assay record as the result for ClCC#CCSc1ncnc2c1ncn2CC#CCCl ?
Out: inactive

In: Same question, COc1cc(-c2nn(-c3ccc(NC(=O)c4cc(Cl)cc(Cl)c4)cc3)cc2-c2ccncc2)ccc1Cl this time
Out: inactive

In: Same question, Cc1sc2ncn(Cc3ccc(Cl)c(Cl)c3)c(=O)c2c1C this time
Out: inactive

In: Same question, CO[C@H](C(=O)O)[C@@H]1Cc2cc3cc(OC4CC(OC5CC(O)C(O)C(C)O5)C(O)C(C)O4)c(C)c(O)c3c(O)c2C(=O)[C@H]1OC1CC(OC2CC(OC3CC(C)(O)C(O)C(C)O3)C(O)C(C)O2)C(O)C(C)O1 (stereo partly specified) this time
Out: active

In: Same question, OC(COc1cccc2ccccc12)CN1CCN(c2ccccc2Cl)CC1 (stereo unspecified) this time
Out: inactive

In: Same question, CCOC(=S)SCN1C(=O)c2ccccc2S1(=O)=O this time
Out: inactive

----------
tested on: HOP-62 NSCLC; test: NCI tumour cell line growth inhibition, 48 h
quantity_name: TGI

In: Hi! What's the reported TGI for O=C1c2ccn(CCCCN3CCC(O)CC3)c2C(=O)c2c1c(O)c1ccccc1c2O on HOP-62 NSCLC?
Out: 34.9 µM

In: Same question, c1ccc(CCn2cncn2)cc1 this time
Out: > 100 µM

In: Same question, CN(C)CC1CCCC/C1=N/OC(=O)c1ccc(Cl)c(Cl)c1 (centres undefined) this time
Out: > 100 µM

In: Same question, Cc1nc2c(=O)[nH]c3ccc(Cl)cc3c2o1 this time
Out: > 100 µM

In: Same question, N=C(N)SCCc1ccccn1 this time
Out: > 100 µM

In: Same question, C[N+](C)([O-])CCCNc1ccnc2cccc([N+](=O)[O-])c12 this time
Out: > 100 µM

In: Same question, NC(N)=NCC(N)C(=O)O (centres undefined) this time
Out: > 100 µM

In: Same question, CN(C)CCNc1nc(-c2cccs2)cc(-c2cccs2)n1 this time
Out: 40.7 µM

In: Same question, CN1CCN(CCOc2ccc(-c3cnc4c(-c5ccc(F)cc5)cnn4c3)cc2)CC1 this time
Out: 3.81 µM

In: Same question, CC(=O)N(CN1C(=O)CCC1C(=O)O)c1ccccc1Cl (centres undefined) this time
Out: > 100 µM

In: Same question, COc1ccccc1N=C1SCCN1C(=S)Nc1ccc(S(=O)(=O)/N=C/N(C)C)cc1 this time
Out: > 100 µM

In: Same question, C[N+](C)(N)c1nc(N)c(C#N)c(C#N)c1C#N this time
Out: > 10 µM

In: Same question, CC(C)(C)C(=O)OCc1nc2cc3c(cc2c(=O)[nH]1)CCC3=O this time
Out: > 100 µM

In: Same question, C=CCCC(=O)N1C=CC(=O)[C@H](O)[C@@H]1/C=C/c1ccccc1 this time
Out: > 32.5 µM

In: Same question, C[N+](C)(C)CC1CCCC/C1=N\O (centres undefined) this time
Out: > 100 µM

In: Same question, OCC(O)C(O)C(O)C(O)/C=N/Nc1nc(O)c(/C=C2\C=Nc3ccccc32)[nH]1 (centres undefined) this time
Out: > 100 µM

In: Same question, COc1ccc2nc3cccc(C(=O)NCCN(C)C)c3nc2c1 this time
Out: 3.76 µM

In: Same question, C/C=C1\CC(C(=O)OCC)CCCCCCCCCCC1=O (centres undefined) this time
Out: > 100 µM

In: Same question, CN(C)CCNc1nc2c(no[n+]2[O-])c2ccccc12 this time
Out: 34.9 µM

In: Same question, COc1ccc2c(c1)-c1[nH]c3ccccc3c1CC2 this time
Out: 30.8 µM

In: Same question, CCCCCCCCCCCCCCCCP(=O)([O-])OCC[N+](C)(C)C this time
Out: 31 µM

In: Same question, COc1ccc(C2C(Cl)C(=O)N2NC(=O)Cc2ccccc2)cc1OC (centres undefined) this time
Out: > 100 µM

In: Same question, Cc1cc(O)c(C(c2ccncc2)c2c(O)cc(C)[nH]c2=O)c(=O)[nH]1 this time
Out: > 100 µM

In: Same question, OC(COc1cccc2ccccc12)CN1CCN(c2ccccc2Cl)CC1 (centres undefined) this time
Out: 27.3 µM

----------
test system: NCI-H460 lung; assay: NCI tumour cell line growth inhibition, 48 h
quantity_name: TGI

In: Hi! What's the reported TGI for O=[N+]([O-])c1ccc2ncccc2c1CCc1c([N+](=O)[O-])ccc2ncccc12 on NCI-H460 lung?
Out: > 100 µM

In: Same question, O=C1OC(=O)C2C1C(c1ccccc1[N+](=O)[O-])C=C(c1ccco1)N2c1ccncc1 (stereo unspecified) this time
Out: 31.9 µM

In: Same question, c1ccc2nc(OCCN3CC3)ccc2c1 this time
Out: 20.9 µM

In: Same question, COc1ccc(/C=N/N=C(\[O-])c2ccncc2)cc1F.COc1ccc(/C=N\N=C(/[O-])c2ccncc2)cc1F.[Cu+2] this time
Out: 26.5 µM

In: Same question, COc1ccc(C2C(Cl)C(=O)N2NC(=O)Cc2ccccc2)cc1OC (stereo unspecified) this time
Out: > 100 µM

In: Same question, NC(N)=NCC(N)C(=O)O (stereo unspecified) this time
Out: > 100 µM

In: Same question, Cc1cccc(NC2=NCCO2)c1Cl this time
Out: > 100 µM

In: Same question, COc1ccc(NC(=O)/C=C(C)/C=C/C=C(C)\C=C\C2=C(C)CCCC2(C)C)cc1 this time
Out: > 100 µM

In: Same question, O=S(=O)(/N=C(\NO)Nc1ccc(Cl)cc1)c1ccc(-c2ccccn2)s1 this time
Out: > 100 µM

In: Same question, CC1=C(C(=O)Nc2ccccc2)C(c2ccc(C(C)C)cc2)C(C(=O)Nc2ccccc2)=C(C)N1 this time
Out: 55.4 µM

In: Same question, C[N+](C)(C)CC1CCCC/C1=N\O (stereo unspecified) this time
Out: > 100 µM

In: Same question, COc1ccc2c(c1)-c1[nH]c3ccccc3c1CC2 this time
Out: 29.9 µM

In: Same question, CC(C)c1cccc(C(C)C)c1OS(=O)(=O)NC(=O)OC(C(F)(F)F)C(F)(F)F this time
Out: > 100 µM

In: Same question, CC[C@H](NC(=O)[C@H](CS(=O)(=O)CC1CC1)N[C@@H](c1ccc(F)cc1)C(F)(F)F)C(=O)C(=O)NC1CC1 this time
Out: > 100 µM

In: Same question, N=C(c1cccs1)C1(N2CCCCC2)CCCCC1 this time
Out: 30 µM

In: Same question, C=C1c2nc3ccccc3n2C=C(c2ccc(OC)cc2)N1c1ccc(OCCN2CCOCC2)cc1 this time
Out: > 49.9 µM

In: Same question, C#Cc1cc2c(N)c(C(=O)c3cc(OC)c(OC)c(OC)c3)[nH]c2cc1OC this time
Out: > 100 µM

In: Same question, C1C[OH+]CC[OH+]CC[OH+]CC[OH+]CC[OH+]CC[OH+]1.[Cl-].[Nb+5] this time
Out: > 100 µM

In: Same question, CC(=O)O[C@H]1C=CC23OC(=O)[C@]1(C)[C@H]2[C@H](C(=O)O)C12CC(=O)[C@@](CO)(CC[C@H]13)C2 this time
Out: > 100 µM

In: Same question, CC1(C)C2CCC(N)(C2)C1O (stereo unspecified) this time
Out: > 100 µM

In: Same question, OCC(O)C(O)C(O)C(O)/C=N/Nc1nc(O)c(/C=C2\C=Nc3ccccc32)[nH]1 (stereo unspecified) this time
Out: > 100 µM

In: Same question, C=CC1(c2ccc(OC)cc2)OCCCO1 this time
Out: > 100 µM

In: Same question, C#CCN(Cc1nc2cc(C(F)(F)F)ccc2nc1-c1ccccc1)c1ccc(F)c(F)c1 this time
Out: > 100 µM

In: Same question, CCOP(=O)(OCC)C(C)(C)OC(=O)NC#N this time
Out: > 100 µM

In: Same question, COC[C@@H](Cc1ccc(OC)c(OC)c1)[C@@H](COC)Cc1ccc(OC)c(OC)c1 this time
Out: > 100 µM

In: Same question, ClCC#CCSc1ncnc2c1ncn2CC#CCCl this time
Out: 6.77 µM

In: Same question, CCOC(=O)Cc1csc(NC(=O)COC(=O)c2ccc(OC)cc2)n1 this time
Out: > 100 µM

In: Same question, Nc1c(C(=O)Nc2cccc(Br)c2)sc2nc3c(cc12)C(O)CCC3 (stereo unspecified) this time
Out: 22 µM

In: Same question, COc1ccccc1NCC(=O)Nn1c(C)nc2ccc(S(=O)(=O)Nc3ccccc3OC)cc2c1=O this time
Out: > 100 µM

In: Same question, NS(=O)(=O)c1ccc(NC(=O)COC(=O)c2cccc3c(=O)c4ccccc4[nH]c23)cc1 this time
Out: > 100 µM

In: Same question, Cn1ccnc1C[N-]Cc1nccn1C.O=[N+]([O-])[O-].O=[N+]([O-])[O-].[Cu+2] this time
Out: > 100 µM

In: Same question, O=[N+]([O-])c1cc(Cl)ccc1S(=O)(=O)N1CCCc2cc(Cl)ccc21 this time
Out: > 100 µM

In: Same question, CC(C)N(C(C)C)P(OCCC#N)OC1CC(n2cnc3c(=O)[nH]cnc32)OC1COC(=O)NCCCCCCNC(=O)OC(C)(C)c1ccc(-c2ccccc2)cc1 (stereo unspecified) this time
Out: 65 µM

In: Same question, O=C(Oc1cccc(Cl)c1)c1cc2cc(CCl)ccc2oc1=O this time
Out: > 100 µM

In: Same question, CN1B(c2ccccc2)N(C)C(=O)N(C)C1=O this time
Out: > 100 µM

In: Same question, O=C(O)CC(O)(C(=O)O)C(O)C(=O)O (stereo unspecified) this time
Out: > 1000 µM

In: Same question, CC1(C)c2ccccc2C(O)C12CCC(=O)CC2 (stereo unspecified) this time
Out: > 100 µM

In: Same question, COc1cc([C@@H]2c3cc4c(cc3C[C@H]3COC(=O)[C@@H]32)OCO4)cc2c1OCO2 this time
Out: 0.33 µM

In: Same question, Cn1ncc(-c2ccc3c(=O)[nH]nc(CN)c3c2)c1-c1c(F)cc2ccccc2c1C#N this time
Out: 14.6 µM

In: Same question, Cc1sc2nc3n(c(=O)c2c1C)N=C(c1ccc([N+](=O)[O-])cc1)CS3 this time
Out: > 100 µM

In: Same question, CC(=O)OCC1OC(N2C(S)=C(C#N)C(c3ccco3)C(C(C)=O)=C2c2ccccc2)C(OC(C)=O)C(OC(C)=O)C1OC(C)=O (stereo unspecified) this time
Out: > 100 µM
